Provenance of the data: ChEMBL document CHEMBL4823282

assay remarks: Cytotoxicity against human glomerular mesangial cells incubated for 12 hrs by MTT assay
Assay type: cell-based
conditions used: Glomerular mesangial cell
Where a SMILES comes first, the peptide text is derived from it.
Could you please report measured IC50 for the items listed next?
Kindly answer with a numeric value in µM, unit omitted.

Challenge: What measured IC50 goes with NCCCC[C@H](NC(=O)[C@H](CCCCN)NC(=O)[C@H](Cc1c[nH]c2ccccc12)NC(=O)[C@H](CCCCN)NC(=O)[C@H](CCCCN)NC(=O)[C@H](Cc1c[nH]c2ccccc12)NC(=O)[C@H](Cc1c[nH]c2ccccc12)NC(=O)[C@@H](N)CCCCN)C(=O)N[C@@H](Cc1c[nH]c2ccccc12)C(=O)N[C@@H](Cc1c[nH]c2ccccc12)C(N)=O (H-KWWKKWKKWW-NH2) ?
Response given: 40.2

Challenge: Using the record for CC[C@H](C)[C@H](NC(=O)[C@H](CCCNC(=N)N)NC(=O)[C@H](CCCNC(=N)N)NC(=O)[C@H](Cc1ccccc1)NC(=O)[C@H](Cc1ccccc1)NC(=O)CN)C(=O)N[C@@H](CCCNC(=N)N)C(=O)N[C@H](C(=O)N[C@@H](Cc1ccccc1)C(=O)N[C@@H](Cc1ccccc1)C(N)=O)[C@@H](C)O (H-GFFRRIRTFF-NH2) , report its IC50.
Response given: 52.6

Challenge: Quick one: IC50 of CC(C)C[C@H](NC(=O)CN)C(=O)N[C@@H](Cc1c[nH]c2ccccc12)C(=O)N[C@@H](CCCCN)C(=O)N[C@@H](CCCNC(=N)N)C(=O)N[C@@H](Cc1c[nH]c2ccccc12)C(=O)N[C@@H](CCCCN)C(=O)N[C@@H](CCCCN)C(=O)N[C@@H](Cc1ccccc1)C(=O)N[C@@H](Cc1c[nH]c2ccccc12)C(N)=O (H-GLWKRWKKFW-NH2) ?
Response given: 39

Challenge: Which measured IC50 value corresponds to CC[C@H](C)[C@H](NC(=O)[C@H](CCCNC(=N)N)NC(=O)[C@H](CCCCN)NC(=O)[C@H](Cc1ccccc1)NC(=O)[C@H](Cc1ccccc1)NC(=O)CN)C(=O)N[C@@H](CCCNC(=N)N)C(=O)N[C@H](C(=O)N[C@@H](Cc1ccccc1)C(=O)N[C@@H](Cc1ccccc1)C(N)=O)[C@@H](C)O (H-GFFKRIRTFF-NH2) ?
Response given: 88.9

Challenge: Item under review: CC[C@H](C)[C@H](NC(=O)[C@H](CCCNC(=N)N)NC(=O)[C@H](CCCCN)NC(=O)[C@H](Cc1c[nH]c2ccccc12)NC(=O)[C@H](Cc1c[nH]c2ccccc12)NC(=O)CN)C(=O)N[C@@H](CCCCN)C(=O)N[C@H](C(=O)N[C@@H](Cc1c[nH]c2ccccc12)C(=O)N[C@@H](Cc1c[nH]c2ccccc12)C(N)=O)[C@@H](C)O (H-GWWKRIKTWW-NH2) . Reported IC50?
Response given: 25.2

---

assay remarks: Selectivity ratio of MHC10 for BALB/C mouse erythrocytes to MIC for gram-negative bacteria
Assay type: toxicity
Where a SMILES comes first, the peptide text is derived from it. Bridges are numbered along the chain shown (N, C = ends). [ ]: non-standard residue; d: D form. The star is where a group is joined. X1 = CC[C@H](C)CCCCC(=O)*; Dab = NCC[C@H](N)C(=O)O
Record form. Attribute: selectivity ratio. Fill in for each entry.
Note: the reply should be a number with no unit written.

Challenge: Need selectivity ratio of CC[C@H](C)[C@H](NC(=O)[C@H](CCCNC(=N)N)NC(=O)[C@H](CCCCN)NC(=O)[C@H](Cc1ccccc1)NC(=O)[C@H](Cc1c[nH]c2ccccc12)NC(=O)CN)C(=O)N[C@@H](CCCCN)C(=O)N[C@H](C(=O)N[C@@H](Cc1ccccc1)C(=O)N[C@@H](Cc1c[nH]c2ccccc12)C(N)=O)[C@@H](C)O (H-GWFKRIKTFW-NH2) , thanks.
Response given: 17

Challenge: Give the measured selectivity ratio of CC(C)C[C@H](NC(=O)[C@H](Cc1ccccc1)NC(=O)CN)C(=O)N[C@@H](CCCCN)C(=O)N[C@@H](CCCNC(=N)N)C(=O)N[C@@H](Cc1ccccc1)C(=O)N[C@@H](CCCCN)C(=O)N[C@H](C(=O)N[C@@H](CC(C)C)C(=O)N[C@@H](Cc1ccccc1)C(N)=O)[C@@H](C)O (H-GFLKRFKTLF-NH2) .
Response given: 7.14

Challenge: Give the measured selectivity ratio of CC[C@H](C)[C@H](NC(=O)[C@H](CCCNC(=N)N)NC(=O)[C@H](CCCCN)NC(=O)[C@H](Cc1ccccc1)NC(=O)[C@H](Cc1ccccc1)NC(=O)CN)C(=O)N[C@@H](CCCNC(=N)N)C(=O)N[C@H](C(=O)N[C@@H](Cc1ccccc1)C(=O)N[C@@H](Cc1ccccc1)C(N)=O)[C@@H](C)O (H-GFFKRIRTFF-NH2) .
Response given: 22.6

Challenge: Which selectivity ratio is listed for C[C@@H](O)[C@H](NC(=O)[C@H](CCCCN)NC(=O)[C@H](Cc1c[nH]c2ccccc12)NC(=O)[C@H](CCCNC(=N)N)NC(=O)[C@H](CCCCN)NC(=O)[C@H](Cc1ccccc1)NC(=O)[C@H](Cc1ccccc1)NC(=O)CN)C(=O)N[C@@H](Cc1ccccc1)C(=O)N[C@@H](Cc1ccccc1)C(N)=O (H-GFFKRWKTFF-NH2) ?
Response given: 22.6

Challenge: Given the molecule CC[C@H](C)[C@H](NC(=O)CN)C(=O)N[C@@H](CCCNC(=N)N)C(=O)N[C@@H](Cc1c[nH]c2ccccc12)C(=O)N[C@@H](CCCCN)C(=O)N[C@@H](Cc1ccccc1)C(=O)N[C@@H](Cc1c[nH]c2ccccc12)C(=O)N[C@@H](CCCCN)C(=O)N[C@@H](Cc1ccccc1)C(=O)N[C@H](C(N)=O)[C@@H](C)O (H-GIRWKFWKFT-NH2) , what is its reported selectivity ratio?
Response given: 11.3

Challenge: Fill in the blank: the reported selectivity ratio of CC[C@H](C)CCCCC(=O)N[C@@H](CCN)C(=O)N[C@H](C(=O)N[C@@H](CCN)C(=O)N[C@H]1CCNC(=O)[C@H]([C@@H](C)O)NC(=O)[C@H](CCN)NC(=O)[C@H](CCN)NC(=O)[C@H](CC(C)C)NC(=O)[C@@H](Cc2ccccc2)NC(=O)[C@H](CCN)NC1=O)[C@@H](C)O (X1-[Dab]T[Dab][Dab][Dab][dF]L[Dab][Dab]T; lactam 4-C) is ____.
Response given: 90.5

Challenge: # input molecule: CC[C@H](C)[C@H](NC(=O)[C@H](CCCNC(=N)N)NC(=O)[C@H](CCCNC(=N)N)NC(=O)[C@H](Cc1ccccc1)NC(=O)[C@H](Cc1ccccc1)NC(=O)CN)C(=O)N[C@@H](CCCNC(=N)N)C(=O)N[C@H](C(=O)N[C@@H](Cc1ccccc1)C(=O)N[C@@H](Cc1ccccc1)C(N)=O)[C@@H](C)O (H-GFFRRIRTFF-NH2) ; wanted: its selectivity ratio
Response given: 26.9

Challenge: I am curious: what selectivity ratio value has been reported for CC[C@H](C)[C@H](NC(=O)[C@H](CCCNC(=N)N)NC(=O)[C@H](CCCNC(=N)N)NC(=O)[C@H](Cc1ccccc1)NC(=O)[C@H](Cc1ccccc1)NC(=O)CN)C(=O)N[C@@H](CCCCN)C(=O)N[C@H](C(=O)N[C@@H](Cc1ccccc1)C(=O)N[C@@H](Cc1ccccc1)C(N)=O)[C@@H](C)O (H-GFFRRIKTFF-NH2) ?
Response given: 19

Challenge: Item under review: CC[C@H](C)[C@H](NC(=O)[C@H](CCCNC(=N)N)NC(=O)[C@H](CCCCN)NC(=O)[C@H](Cc1ccccc1)NC(=O)[C@H](Cc1c[nH]c2ccccc12)NC(=O)[C@@H](N)CCCCN)C(=O)N[C@@H](CCCCN)C(=O)N[C@H](C(=O)N[C@@H](Cc1ccccc1)C(=O)N[C@@H](Cc1c[nH]c2ccccc12)C(N)=O)[C@@H](C)O (H-KWFKRIKTFW-NH2) . Reported selectivity ratio?
Response given: 19

Challenge: Consider the molecule shown here: C[C@H](NC(=O)[C@H](C)NC(=O)[C@@H](NC(=O)[C@H](CCCCN)NC(=O)[C@H](C)NC(=O)[C@H](CCCNC(=N)N)NC(=O)[C@H](CCCCN)NC(=O)[C@H](C)NC(=O)[C@H](C)NC(=O)CN)[C@@H](C)O)C(N)=O (H-GAAKRAKTAA-NH2) What is its recorded selectivity ratio?
Response given: 1

Challenge: Tell me the measured selectivity ratio of N=C(N)NCCC[C@H](NC(=O)[C@H](CCCNC(=N)N)NC(=O)[C@H](Cc1c[nH]c2ccccc12)NC(=O)[C@H](CCCNC(=N)N)NC(=O)[C@H](CCCNC(=N)N)NC(=O)[C@H](Cc1c[nH]c2ccccc12)NC(=O)[C@H](Cc1c[nH]c2ccccc12)NC(=O)[C@@H](N)CCCNC(=N)N)C(=O)N[C@@H](Cc1c[nH]c2ccccc12)C(=O)N[C@@H](Cc1c[nH]c2ccccc12)C(N)=O (H-RWWRRWRRWW-NH2) , please.
Response given: 1.93

Challenge: Please report the recorded selectivity ratio for C[C@@H](O)[C@H](NC(=O)[C@H](CCCCN)NC(=O)[C@H](Cc1c[nH]c2ccccc12)NC(=O)[C@H](CCCNC(=N)N)NC(=O)[C@H](CCCCN)NC(=O)[C@H](Cc1c[nH]c2ccccc12)NC(=O)[C@H](Cc1c[nH]c2ccccc12)NC(=O)CN)C(=O)N[C@@H](Cc1c[nH]c2ccccc12)C(=O)N[C@@H](Cc1c[nH]c2ccccc12)C(N)=O (H-GWWKRWKTWW-NH2) .
Response given: 3.02
